Molecular target: T1, recombinant extracellular domain of the predominant human CD22-beta isoform (CD22-ECD) (human, UniProt P20273 20-687, CHO-expressed glycoprotein. Capture on an SA chip implies biotinylation, but the patent does not state it for SPR.)
T1 construct: Expressed in CHO-3E7 cells, IMAC and SEC purified, monomeric fraction; Results say it was immobilized onto a CM5 dextran chip; also called human CD22-ECD; hCD22 ecto-domain
T1 sequence: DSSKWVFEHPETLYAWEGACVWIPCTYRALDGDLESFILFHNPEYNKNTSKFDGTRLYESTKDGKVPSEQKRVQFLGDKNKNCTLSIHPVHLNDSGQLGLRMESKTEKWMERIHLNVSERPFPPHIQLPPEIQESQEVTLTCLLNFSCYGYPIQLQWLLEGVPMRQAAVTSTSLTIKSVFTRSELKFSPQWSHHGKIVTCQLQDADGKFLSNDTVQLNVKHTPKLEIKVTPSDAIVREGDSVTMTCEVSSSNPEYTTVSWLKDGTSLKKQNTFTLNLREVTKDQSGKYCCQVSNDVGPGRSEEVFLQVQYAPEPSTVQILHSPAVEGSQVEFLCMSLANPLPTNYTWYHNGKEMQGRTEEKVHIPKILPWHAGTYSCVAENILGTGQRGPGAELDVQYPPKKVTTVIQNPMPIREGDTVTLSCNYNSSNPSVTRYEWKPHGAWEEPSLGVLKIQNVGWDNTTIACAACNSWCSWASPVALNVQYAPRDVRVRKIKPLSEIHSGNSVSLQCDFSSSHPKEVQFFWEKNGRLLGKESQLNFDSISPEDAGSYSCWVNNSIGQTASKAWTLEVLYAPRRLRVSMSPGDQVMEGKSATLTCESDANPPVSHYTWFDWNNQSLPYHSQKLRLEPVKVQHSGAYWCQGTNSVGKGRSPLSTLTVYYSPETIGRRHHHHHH
Test: SPR, Biacore T200, VHH over immobilized CD22-ECD
# log10(koff) annotations
For clarity, the numbers are log10 values of koff expressed in s⁻¹.

Prompt: Which measured log10(koff) value corresponds to hCD221ug-77 (VHH, single biotin at the VHH C-terminal (biotinylation signal sequence), llama VHH, expressed in E. coli TG1, IMAC purified, monomeric SEC fraction; also called VHH # 8) VHH: QVKLEESGGGLVQPGGSLRLSCADSGSIFRIAVMNWYRQAPGKERELVAVITSGGETHYAASVKGRFTISRDNAKNTMYLQMNSLKPEDTAVYYCNAKWGQYEYWGQGTQVTVSS ?
Response: -2.58

Prompt: What value of log10(koff) has been recorded for this entry: hCD221ug-87 (VHH, single biotin at the VHH C-terminal (biotinylation signal sequence), llama VHH, expressed in E. coli TG1, IMAC purified, monomeric SEC fraction; also called VHH # 9) VHH: QVQLVESGGGLVQPGGSLRLSCADSGSIFRIAVMNWYRQAPGKERELVAVITSGGETHYAASVKGRFTISRDNAKNTMYLQMNSLKPEDTAVYYCNAKWGRDEYWGQGTQVTVSS
Response: -3.10

Prompt: May I ask what log10(koff) has been recorded for hCD22100ng-2 (VHH, single biotin at the VHH C-terminal (biotinylation signal sequence), llama VHH, expressed in E. coli TG1, IMAC purified, monomeric SEC fraction; also called VHH # 2) VHH: QVKLEESGGGLVQPGGSLRLSCTVSGVTFDYYVMGWFRQAPGKEREVVSCMRNSDGVTYYADSVKGRFTISRDNAKNTVYLQMNSLKPDDTAIYYCAVDKPFYDGGNYYTCPVDFDSWGQGTQVTVSS ?
Response: -3.89

Prompt: Param item = hCD22100ng-66 (VHH, single biotin at the VHH C-terminal (biotinylation signal sequence), llama VHH, expressed in E. coli TG1, IMAC purified, monomeric SEC fraction; also called VHH # 4) VHH: QVQLVESGGGLVQPGGSLRLSCTVSGFSLDYYVMGWFRQAPGKEREVVSCISSSDGATYYPDSVKGRFTISRDNAKKTVYLQMNALKPEDTAIYYCAVDKPFYDGGSYYTCPVDFGSWGQGTQVTVSS ; retrieve measured log10(koff).
Response: -3.87

Prompt: Entry under review: hCD22pas-24 (VHH, single biotin at the VHH C-terminal (biotinylation signal sequence), llama VHH, expressed in E. coli TG1, IMAC purified, monomeric SEC fraction; also called VHH # 26; 8-hCD22 pas-24) VHH: QVQLVESGGGLVQAGGSLRLSCSASGITSSINSMGWHRQAPGKQRELVASIGRGGSGSTKYADSGKGRFLISRDNNKNILFLEMNSLKPEDTADYYCLEVTTDLSSYWGRGTQVTVSS . Reported log10(koff)?
Response: -2.41

Prompt: Need log10(koff) of hCD22pas-64 (VHH, single biotin at the VHH C-terminal (biotinylation signal sequence), llama VHH, expressed in E. coli TG1, IMAC purified, monomeric SEC fraction; also called VHH # 25; 7-hCD22 pas-64) VHH: QVQLVESGGGLVQAGGSLRLSCAASGSTFSLNTMAWYRQAPGNQREYVAAASSDGYTNYADSVRGRFTISRDNDKNTMYLQMNSLRPEDTAVYYCTWGTGRFADYIYWGQGTQVTVSS , thanks.
Response: -1.57

Prompt: Tell me the measured log10(koff) of hCD221ug-80 (VHH, single biotin at the VHH C-terminal (biotinylation signal sequence), llama VHH, expressed in E. coli TG1, IMAC purified, monomeric SEC fraction; also called VHH # 1; 2-hCD22 1ug-80) VHH: QVQLVESGGGLVQPGGSLRLSCTFSGFTLDYYVMVWFRQAPGKEREAVSCITSDGVTYYADSVKGRFTISRDNAKNTVYLQMNRVKPEDTAVYYCAVDKPFYDGGIQYTCPVDFDSWGQGAQVTVSS , please.
Response: -3.20

Prompt: Look up log10(koff): hCD221ug-61 (VHH, single biotin at the VHH C-terminal (biotinylation signal sequence), llama VHH, expressed in E. coli TG1, IMAC purified, monomeric SEC fraction; also called VHH # 14; 3-hCD22 1ug-61) VHH: QVQLVESGGGLVQAGGSLRLSCAASMSSFSQYVMYWYRQAPGKQRELVATITSYSNTNYADSVKGRFTISRDNAKSIAYLQMDSLKPEDTAVYYCNAQYGSTFIRNHWDDWGQGTQVTVSS
Response: -3.17

Prompt: Consider the binder hCD221ug-36 (VHH, single biotin at the VHH C-terminal (biotinylation signal sequence), llama VHH, expressed in E. coli TG1, IMAC purified, monomeric SEC fraction; also called VHH # 22; 4-hCD22 1ug-36) VHH: EVQLVDSGGGLVQAGGSLRVSCEASGITFSRAAMGWYRQRPGKERERVAVVNSDSSTIYADSVKGRFTISRDNAKNTVYLQMNSLEPEDTAVYYCWSPGFGSYWGQGTQVTVSS and give its measured log10(koff).
Response: -2.94

Prompt: Record request: log10(koff) value, item hCD22pas-33 (VHH, single biotin at the VHH C-terminal (biotinylation signal sequence), llama VHH, expressed in E. coli TG1, IMAC purified, monomeric SEC fraction; also called VHH # 7) VHH: QVKLEESGGGLVQPGGSLRLSCTVSGFTLDSYVMGWFRQAPGKEREAVSCISSSDGVTYYADSVKGRFTISRDNAKNTYLQMNSLKPEDTAIYYCAVDKPFYDGGYLYTCPVDFDSWGQGIQVTVSS
Response: -3.85

Prompt: Which log10(koff) reading was recorded for the binder hCD22pas-16 (VHH, single biotin at the VHH C-terminal (biotinylation signal sequence), llama VHH, expressed in E. coli TG1, IMAC purified, monomeric SEC fraction; also called VHH # 20) VHH: QVQLVESGGGLVQAGGSLRLSCAASGSTFSLKAMAWYRQAPGKQRERVGVINSDGSYTTDAASVQGRFTISRDNAKNTVYLQMNSLKPEDTAVYYCNTMPPWPWGQGTQVTVSS ?
Response: -3.00

Prompt: Tell me the measured log10(koff) of hCD221ug-13 (VHH, single biotin at the VHH C-terminal (biotinylation signal sequence), llama VHH, expressed in E. coli TG1, IMAC purified, monomeric SEC fraction; also called VHH # 21; 1-hCD22 1ug-13) VHH: QVQLVESGGGLVQAGDSLRLSCAGSGGSFSSVTMAWFRQAPGKDREFVAAITWSSPSTYYADSVKGRFTISRDNAKNTVYLQMNSLKPEDTAVYYCAGGRTGRGTSADTDEYNYWGQGTQVTVSS , please.
Response: -3.17

Prompt: Form field: reported log10(koff) of hCD221ug-14 (VHH, single biotin at the VHH C-terminal (biotinylation signal sequence), llama VHH, expressed in E. coli TG1, IMAC purified, monomeric SEC fraction; also called VHH # 16; 9-hCD22 1ug-14) VHH: QVKLEESGGGLVQAGGSLRLSCAVSGRIFRSYVLGWFRQAPGKERELVARIGWSDTYYADSVKGRFTISRDNAKNTVDLQMNSLKPEDTAVYYCAANSPPYGPQRDEFDYWGQGTQVTVSS
Response: -4.68

Prompt: Given hCD221ug-75 (VHH, single biotin at the VHH C-terminal (biotinylation signal sequence), llama VHH, expressed in E. coli TG1, IMAC purified, monomeric SEC fraction; also called VHH # 10) VHH: QVKLEESGGGLVQPGGSLRLSCAGSGSIFRIAVMNWYRQAPGKERELVAVITSGGDTHYAASVKGRFTISRDNAKNTMYLQINSLKPEDTAVYYCNAKYGRDEYWGQGAQVTVSS , state its recorded log10(koff).
Response: -2.92

Prompt: Would you mind telling me what log10(koff) value was observed for hCD221ug-74 (VHH, single biotin at the VHH C-terminal (biotinylation signal sequence), llama VHH, expressed in E. coli TG1, IMAC purified, monomeric SEC fraction; also called VHH # 3) VHH: QVKLEESGGGLVQAGGSLRLSCAGSGFTFDDYAMGWFRQAPGKEREVVSCMGSSDGATYYADSVKGRFTISRDNAKNTVYLQMNSLKPEDTAIYYCAVDKPFYDGGYRYTCPVDFGSWGQGTQVTVSS ?
Response: -3.18

Prompt: Sample hCD221ug-6 (VHH, single biotin at the VHH C-terminal (biotinylation signal sequence), llama VHH, expressed in E. coli TG1, IMAC purified, monomeric SEC fraction; also called VHH # 5) VHH: QVQLVESGGGVVRPGDSLRLSCTVSGFTLDYYVMGWFRQAPGKEREVVSCISSSDGVTYYADSVKGRFTISRDNAKNTVYLQMNSLKPEDTAIYYCAVDKPFYDGGYYYTCPVDFDSWGQGTQVTVSS — what was its log10(koff)?
Response: -3.89

Prompt: Looking for the measured log10(koff) of hCD221ug-10 (VHH, single biotin at the VHH C-terminal (biotinylation signal sequence), llama VHH, expressed in E. coli TG1, IMAC purified, monomeric SEC fraction; also called VHH # 23; 5-hCD22 1ug-10) VHH: QVQLVESGGGLVQAGGSLSVSCTASESTFSIMMGWFRQAPGKQREMVAVINSAGSTNYADSAEGRFTISRDLAKKTVSLQMNSLKPEDTAVYYCYVDGYFGQGTQVTVSS , can you help?
Response: -2.75
